- Study System: Receptor-type tyrosine-protein kinase FLT3 (Homo sapiens, UniProt P36888)
- Sequence (P36888 whole entry): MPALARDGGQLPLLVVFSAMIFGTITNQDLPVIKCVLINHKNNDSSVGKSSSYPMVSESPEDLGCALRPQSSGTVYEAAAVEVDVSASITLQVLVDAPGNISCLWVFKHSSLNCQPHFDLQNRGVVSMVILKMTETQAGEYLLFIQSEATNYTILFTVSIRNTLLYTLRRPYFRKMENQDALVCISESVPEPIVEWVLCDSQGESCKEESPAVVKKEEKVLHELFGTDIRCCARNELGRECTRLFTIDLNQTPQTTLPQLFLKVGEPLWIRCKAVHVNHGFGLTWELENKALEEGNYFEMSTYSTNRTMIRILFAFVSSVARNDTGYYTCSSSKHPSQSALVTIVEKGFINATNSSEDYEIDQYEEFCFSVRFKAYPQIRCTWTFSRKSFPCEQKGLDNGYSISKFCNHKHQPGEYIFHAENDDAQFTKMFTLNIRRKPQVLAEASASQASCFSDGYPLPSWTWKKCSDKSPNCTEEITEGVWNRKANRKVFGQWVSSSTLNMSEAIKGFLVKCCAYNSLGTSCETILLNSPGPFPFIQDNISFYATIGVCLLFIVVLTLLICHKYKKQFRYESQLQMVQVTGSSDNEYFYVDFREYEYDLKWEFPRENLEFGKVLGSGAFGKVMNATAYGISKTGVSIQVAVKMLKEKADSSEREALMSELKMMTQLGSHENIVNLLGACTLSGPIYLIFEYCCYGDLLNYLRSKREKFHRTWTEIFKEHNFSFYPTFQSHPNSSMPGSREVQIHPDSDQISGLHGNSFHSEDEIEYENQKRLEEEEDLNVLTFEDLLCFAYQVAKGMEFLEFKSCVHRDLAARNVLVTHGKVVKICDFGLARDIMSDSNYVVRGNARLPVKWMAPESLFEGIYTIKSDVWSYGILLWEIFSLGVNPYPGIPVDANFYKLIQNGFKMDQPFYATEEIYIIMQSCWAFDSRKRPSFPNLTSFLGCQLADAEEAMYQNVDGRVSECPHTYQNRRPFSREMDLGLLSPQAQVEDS
Readout Name: IC50 (nM)
Quick note: give the figure in nM, leave out the unit.

Fill blank: measured IC50 of the molecule COc1ccc(NC(=O)Nc2nnc(Sc3ncnc4oc(-c5ccccc5)cc34)s2)cc1 is ____.
174

###

- System: MV4-11
- Assay Name: Antiproliferative activity against human MV4-11 cells harboring homozygous FLT3-ITD mutant assessed as inhibition of cell growth incubated for 72 hrs by resazurin dye based fluorescence analysis
- Type: functional
Labelling: GI50 reported below 300 nM becomes label 1; at or above becomes label 0.

Given the entry COc1cccc(NC(=O)Nc2nnc(Sc3ncnc4oc(-c5ccccc5)cc34)s2)c1 , would its reported GI50 be below 300 nM?
label 1

Given the entry O=C(Nc1nnc(Sc2ncnc3oc(-c4ccccc4)c(-c4ccccc4)c23)s1)Nc1ccc(F)cc1F , would its reported GI50 be below 300 nM?
label 1

Given the entry Cc1ccc(NC(=O)Nc2nnc(Sc3ncnc4oc(-c5ccccc5)c(-c5ccccc5)c34)s2)cc1 , would its reported GI50 be below 300 nM?
label 1

Given the entry COc1ccc(-c2cc3c(Sc4nnc(NC(=O)Nc5ccc(Cl)c(C(F)(F)F)c5)s4)ncnc3o2)cc1 , would its reported GI50 be below 300 nM?
label 0

Given the entry O=C(Nc1ccc(Cl)cc1)Nc1nnc(Sc2ncnc3oc(-c4ccccc4)c(-c4ccccc4)c23)s1 , would its reported GI50 be below 300 nM?
label 0

***
Given the entry COc1ccc(-c2cc3c(Sc4nnc(NC(=O)Nc5ccc(Cl)cc5)s4)ncnc3o2)cc1 , would its reported GI50 be below 300 nM?
label 0

Given the entry Cc1cccc(NC(=O)Nc2nnc(Sc3ncnc4oc(-c5ccccc5)cc34)s2)c1 , would its reported GI50 be below 300 nM?
label 1

Given the entry O=C(Nc1ccc(Cl)c(Cl)c1)Nc1nnc(Sc2ncnc3oc(-c4ccccc4)cc23)s1 , would its reported GI50 be below 300 nM?
label 0

Given the entry COc1cccc(NC(=O)Nc2nnc(Sc3ncnc4oc(-c5ccccc5)c(-c5ccccc5)c34)s2)c1 , would its reported GI50 be below 300 nM?
label 1

Given the entry COc1ccc(-c2cc3c(Sc4nnc(NC(=O)Nc5ccccc5)s4)ncnc3o2)cc1 , would its reported GI50 be below 300 nM?
label 1

Given the entry COc1ccc(-c2cc3c(Sc4nnc(NC(=O)Nc5cccc(Cl)c5)s4)ncnc3o2)cc1 , would its reported GI50 be below 300 nM?
label 0

Given the entry O=C(Nc1ccc(Cl)c(C(F)(F)F)c1)Nc1nnc(Sc2ncnc3oc(-c4ccccc4)c(-c4ccccc4)c23)s1 , would its reported GI50 be below 300 nM?
label 0

Given the entry COc1ccc(NC(=O)Nc2nnc(Sc3ncnc4oc(-c5ccccc5)c(-c5ccccc5)c34)s2)cc1 , would its reported GI50 be below 300 nM?
label 1

Given the entry COc1ccc(NC(=O)Nc2nnc(Sc3ncnc4oc(-c5ccc(OC)cc5)cc34)s2)cc1 , would its reported GI50 be below 300 nM?
label 1

Given the entry O=C(Nc1cccc(Cl)c1)Nc1nnc(Sc2ncnc3oc(-c4ccccc4)c(-c4ccccc4)c23)s1 , would its reported GI50 be below 300 nM?
label 0

Given the entry O=C(Nc1ccc(Cl)c(C(F)(F)F)c1)Nc1nnc(Sc2ncnc3oc(-c4ccccc4)cc23)s1 , would its reported GI50 be below 300 nM?
label 0

Given the entry O=C(Nc1cccc(F)c1)Nc1nnc(Sc2ncnc3oc(-c4ccccc4)cc23)s1 , would its reported GI50 be below 300 nM?
label 0

Given the entry O=C(Nc1cccc(F)c1)Nc1nnc(Sc2ncnc3oc(-c4ccccc4)c(-c4ccccc4)c23)s1 , would its reported GI50 be below 300 nM?
label 1
